molecular target: UniProt P29475; assay: Hemoglobin capture assay, Ki (Example 159); assay type: biochemical
Measure: Ki (nM)

Compound | Tested system | Measure | Readout units | Value observed
Cc1cc(N)nc(CCc2cncc(N3CCOCC3)c2)c1 [Compound 14c] | UniProt P29475 | Ki | nM | 862
Cc1cc(N)nc(CCc2cncc(CCCN(C)C)c2)c1 [Compound 14k] | UniProt P29475 | Ki | nM | 37

###

target: human nNOS (Homo sapiens (Human), UniProt P29475); assay: Oxyhemoglobin NO assay, Ki (Table 9); type: biochemical
pKi: −log10 of the molar value.
Below, each entry is listed alongside its reported pKi.
Measure: pKi

Molecule | Value observed
CCNCCN(C)c1cc(C#N)cc(CCc2cc(C)cc(N)n2)c1 [Compound 21a] | 6.65
Cc1cc(N)nc(CCc2cc(F)cc(NCCN(C)C)c2)c1 [Compound 23a] | 6.12
Cc1cc(N)nc(CCc2cc(C#N)cc(N(C)CCNC(C)C)c2)c1 [Compound 21b] | 6.45

###

Below, each entry is listed alongside its reported Ki.
target: rat nNOS (Rattus norvegicus (Rat), UniProt P29476)
Measure: Ki

Compound | Tested system | Measure | Value observed
Cc1cc(N)nc(CCc2cncc(N3CCOCC3)c2)c1 [Compound 14c] | rat nNOS (Rattus norvegicus (Rat), UniProt P29476) | Ki | 547 nM
COCCCNc1cncc(CCc2cc(C)cc(N)n2)c1 [Compound 14e] | rat nNOS (Rattus norvegicus (Rat), UniProt P29476) | Ki | 558 nM

###

assay: in vitro; conditions: human, human plasma, pH 7.4
Measure: recovery at 4 h, 5 μM (%)

Compound | Readout units | Value observed
CC(=O)CC(c1ccccc1)c1c(O)c2ccccc2oc1=O (stereo not shown) [Warfarin, reference compound] | % | 100

###

biological target: human nNOS (Homo sapiens (Human)); assay: Oxyhemoglobin NO assay, Ki (Table 9); type: biochemical
Measure: log10 of Ki (log10 of the value in µM)

Compound | Tested system | log10 of Ki
Cc1cc(N)nc(CCc2cc(F)cc(NCc3cccnc3)c2)c1 [Compound 23g] | human nNOS (Homo sapiens (Human)) | -0.59
Cc1cc(N)nc(CCc2cc(F)cc(NCc3cccc(Cl)c3)c2)c1 [Compound 23f] | human nNOS (Homo sapiens (Human)) | 0.32
Cc1cc(N)nc(CCc2cc(F)cc(N3CCNCC3)c2)c1 [Compound 23h] | human nNOS (Homo sapiens (Human)) | -0.79
CNCCN(c1cc(F)cc(CCc2cc(C)cc(N)n2)c1)C1CC1 [Compound 23e] | human nNOS (Homo sapiens (Human)) | -0.62
Cc1cc(N)nc(CCc2cc(F)cc(NC3CCNCC3)c2)c1 [Compound 23i] | human nNOS (Homo sapiens (Human)) | -0.42
Cc1cc(N)nc(CCc2cc(C#N)cc(N(C)CCNC3CC3)c2)c1 [Compound 21c] | human nNOS (Homo sapiens (Human)) | -0.42
CCN(CCNC)c1cc(F)cc(CCc2cc(C)cc(N)n2)c1 [Compound 23d] | human nNOS (Homo sapiens (Human)) | -0.86
Cc1cc(N)nc(CCc2cc(F)cc(N(C)CCNC3CC3)c2)c1 [Compound 23c] | human nNOS (Homo sapiens (Human)) | -0.61
CCNCCN(C)c1cc(F)cc(CCc2cc(C)cc(N)n2)c1 [Compound 23b] | human nNOS (Homo sapiens (Human)) | -0.71

###

target: CYP2B6 (Homo sapiens (Human)); experiment: in vitro; conditions: microsomes, pH 7.4
Measure: inhibition at 10 µM (%)

Compound | Measure | Value observed
CNCCCc1cncc(CCc2cc(C)cc(N)n2)c1 [Compound 14j] | inhibition at 10 µM | 8

###

target: bBiDomain (Bacillus subtilis (strain 168), UniProt O34453); assay: bNOS activity inhibition with bBiDomain and YumC, nitrite by Griess reaction
Sequence (O34453 other isoform, or with tags, fused parts or gaps): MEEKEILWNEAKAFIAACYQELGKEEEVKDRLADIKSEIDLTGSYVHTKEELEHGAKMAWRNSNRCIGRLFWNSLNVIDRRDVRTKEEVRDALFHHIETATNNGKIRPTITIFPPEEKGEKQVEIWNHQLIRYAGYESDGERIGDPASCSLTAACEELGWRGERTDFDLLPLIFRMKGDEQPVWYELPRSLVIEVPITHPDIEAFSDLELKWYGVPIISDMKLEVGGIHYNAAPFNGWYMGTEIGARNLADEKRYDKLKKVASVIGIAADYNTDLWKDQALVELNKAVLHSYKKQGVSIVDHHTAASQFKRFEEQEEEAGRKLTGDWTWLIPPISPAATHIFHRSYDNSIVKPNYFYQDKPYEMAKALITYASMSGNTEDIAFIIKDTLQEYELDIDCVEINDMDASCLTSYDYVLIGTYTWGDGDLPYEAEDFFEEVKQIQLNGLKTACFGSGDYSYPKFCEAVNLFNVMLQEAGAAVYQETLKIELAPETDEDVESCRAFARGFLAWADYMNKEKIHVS
pKi: −log10 of the molar value.
Below, each entry is listed alongside its reported pKi.
Measure: pKi

Molecule | Value observed
Cc1cc(N)nc(-c2ccc(CNCCc3cccc(F)c3)cc2)c1 | 6.30
Nc1ccc2ccc(CCNCCCc3cccc(F)c3)cc2n1 [Compound 19, reference compound] | 7.16

###

molecular target: CYP1A2 (Homo sapiens (Human)); assay: CYP inhibition assay, human liver microsomes; conditions: human, microsomes, pH 7.4
Sequence (P05177 whole entry): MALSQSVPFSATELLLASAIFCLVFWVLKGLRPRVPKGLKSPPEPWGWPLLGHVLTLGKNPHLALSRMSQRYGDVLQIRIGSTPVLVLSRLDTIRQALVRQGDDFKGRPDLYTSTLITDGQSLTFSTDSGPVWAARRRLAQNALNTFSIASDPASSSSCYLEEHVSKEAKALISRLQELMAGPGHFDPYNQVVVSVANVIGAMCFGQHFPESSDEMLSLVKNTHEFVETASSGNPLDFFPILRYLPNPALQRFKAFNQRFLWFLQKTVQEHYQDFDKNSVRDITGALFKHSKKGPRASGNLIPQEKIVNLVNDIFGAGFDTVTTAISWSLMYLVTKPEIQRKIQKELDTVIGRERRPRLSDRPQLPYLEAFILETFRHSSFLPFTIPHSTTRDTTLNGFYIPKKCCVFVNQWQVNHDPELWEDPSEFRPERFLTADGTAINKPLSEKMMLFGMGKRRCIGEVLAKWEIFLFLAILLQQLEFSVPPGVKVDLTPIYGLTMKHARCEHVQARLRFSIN

Molecule | inhibition at 10 min, 10 µM, %
CNCCCc1cncc(CCc2cc(C)cc(N)n2)c1 [Compound 14j] | 9

###

target: CYP2C8 (Homo sapiens (Human)); assay: in vitro; conditions: microsomes, pH 7.4
Sequence (P10632 whole entry): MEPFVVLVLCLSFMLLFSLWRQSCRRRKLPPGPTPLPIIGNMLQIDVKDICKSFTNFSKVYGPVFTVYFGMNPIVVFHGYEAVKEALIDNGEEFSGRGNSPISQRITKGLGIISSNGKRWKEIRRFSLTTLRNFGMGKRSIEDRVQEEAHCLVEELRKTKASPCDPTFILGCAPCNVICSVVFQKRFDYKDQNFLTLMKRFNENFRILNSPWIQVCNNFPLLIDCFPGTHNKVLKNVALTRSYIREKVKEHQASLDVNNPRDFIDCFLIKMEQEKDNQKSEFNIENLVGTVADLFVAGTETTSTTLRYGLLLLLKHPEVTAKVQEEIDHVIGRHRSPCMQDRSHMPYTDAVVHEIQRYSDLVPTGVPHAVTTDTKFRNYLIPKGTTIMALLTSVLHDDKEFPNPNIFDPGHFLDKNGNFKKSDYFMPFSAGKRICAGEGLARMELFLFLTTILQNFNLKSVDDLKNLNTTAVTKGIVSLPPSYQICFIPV

Molecule | Tested system | inhibition at 10 µM
CNCCCc1cncc(CCc2cc(C)cc(N)n2)c1 [Compound 14j] | CYP2C8 (Homo sapiens (Human)) | 2%

###

Below, each entry is listed alongside its reported i/n.
target: rat nNOS (Rattus norvegicus (Rat), UniProt P29476); test: Oxyhemoglobin NO assay, Ki (Table 9); type: biochemical; conditions: ratio Ki iNOS to Ki rat nNOS
Measure: i/n

Compound | Value observed
Cc1cc(N)nc(CCc2cc(C#N)cc(N(C)CCNC3CC3)c2)c1 [Compound 21c] | 246.6
Cc1cc(N)nc(CCc2cc(F)cc(N(C)CCNC3CC3)c2)c1 [Compound 23c] | 217.8
Cc1cc(N)nc(CCc2cc(C#N)cc(N(C)CCc3cccc(F)c3)c2)c1 [Compound 21d] | 33.7
Cc1cc(N)nc(CCc2cccc(N(C)CCCN)c2)c1 [Compound 10d] | 11
